- target_of_assay: ABCB1 (Homo sapiens)
- Sequence (P08183 whole entry): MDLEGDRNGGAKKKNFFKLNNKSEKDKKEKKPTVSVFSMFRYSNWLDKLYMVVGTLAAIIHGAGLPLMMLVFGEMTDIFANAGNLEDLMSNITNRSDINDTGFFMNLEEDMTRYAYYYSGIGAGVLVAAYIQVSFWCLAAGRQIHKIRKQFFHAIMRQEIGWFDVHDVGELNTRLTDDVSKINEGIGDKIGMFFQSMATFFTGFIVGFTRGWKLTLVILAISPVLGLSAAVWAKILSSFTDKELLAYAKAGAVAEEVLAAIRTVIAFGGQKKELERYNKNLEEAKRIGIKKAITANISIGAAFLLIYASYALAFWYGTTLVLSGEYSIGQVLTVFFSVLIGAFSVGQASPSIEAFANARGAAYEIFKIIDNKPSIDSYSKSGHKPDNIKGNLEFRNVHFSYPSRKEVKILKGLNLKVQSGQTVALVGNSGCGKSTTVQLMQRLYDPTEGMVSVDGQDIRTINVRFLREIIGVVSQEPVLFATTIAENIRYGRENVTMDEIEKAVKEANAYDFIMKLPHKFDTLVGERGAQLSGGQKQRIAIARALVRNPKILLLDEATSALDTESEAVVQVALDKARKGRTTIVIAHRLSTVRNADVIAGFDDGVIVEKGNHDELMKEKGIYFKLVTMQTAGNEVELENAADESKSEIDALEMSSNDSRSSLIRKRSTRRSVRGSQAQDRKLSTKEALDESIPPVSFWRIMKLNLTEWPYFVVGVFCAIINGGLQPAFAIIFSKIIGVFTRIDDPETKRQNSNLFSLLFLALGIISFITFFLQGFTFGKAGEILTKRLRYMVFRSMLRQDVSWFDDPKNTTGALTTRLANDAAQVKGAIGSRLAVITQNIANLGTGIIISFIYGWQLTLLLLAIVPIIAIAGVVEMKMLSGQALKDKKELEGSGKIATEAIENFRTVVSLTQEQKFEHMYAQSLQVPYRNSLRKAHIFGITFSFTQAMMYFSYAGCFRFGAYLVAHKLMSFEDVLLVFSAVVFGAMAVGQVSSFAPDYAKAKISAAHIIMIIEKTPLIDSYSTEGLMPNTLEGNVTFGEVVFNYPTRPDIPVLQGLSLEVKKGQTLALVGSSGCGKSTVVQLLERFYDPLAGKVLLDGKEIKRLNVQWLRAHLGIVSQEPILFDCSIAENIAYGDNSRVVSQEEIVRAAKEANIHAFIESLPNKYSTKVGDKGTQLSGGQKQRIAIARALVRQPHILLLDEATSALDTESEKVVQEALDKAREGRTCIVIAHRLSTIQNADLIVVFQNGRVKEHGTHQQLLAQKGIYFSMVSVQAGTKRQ
- protocol: JC-1 efflux inhibition dose response, flow cytometry, Jurkat-DNR cells
- condition: read-out: IC50 ABCB1 (efflux inhibition of JC-1 substrate); Jurkat-DNR cells over-expressing ABCB1; averages of two to four replicates
IC50 vs 7 µM: less than gives yes (1); not less than gives no (0).

| compound | discrete_label |
| --- | --- |
| COc1cc2c(cc1OC)CN(CCc1ccc(NC(=O)c3cccc(/C=c4\[nH]c(=O)/c(=C/c5ccccc5)n(C)c4=O)c3)cc1)CC2 [Compound 2, reference compound] | yes (1) |
| Cc1coc(C)c1C(=O)N1CCN(c2cc(-c3ccco3)nc3cc(-c4ccccc4)nn23)CC1 [Compound 71] | no (0) |
| O=C(c1ccsc1)N1CCN(c2cc(-c3ccco3)nc3cc(-c4ccccc4)nn23)CC1 [Compound 68] | yes (1) |
| COc1cccc(-c2cc3nc(-c4ccco4)cc(N4CCN(C(=O)c5ccoc5)CC4)n3n2)c1 [Compound 56] | no (0) |
| O=C(c1coc2ccccc12)N1CCN(c2cc(-c3ccco3)nc3cc(-c4ccccc4)nn23)CC1 [Compound 73] | no (0) |

stdin: Given the entry Cc1cc(C(=O)N2CCN(c3cc(-c4ccco4)nc4cc(-c5ccccc5)nn34)CC2)c(C)o1 [Compound 72] , would its reported IC50 be below 7 µM?
stdout: no (0)

stdin: Given the entry COc1ccccc1-c1cc2nc(-c3ccccc3)cc(N3CCN(C(=O)c4ccco4)CC3)n2n1 [Compound 37] , would its reported IC50 be below 7 µM?
stdout: yes (1)

stdin: Given the entry CN(C)C(=O)CCSC(SCCC(=O)O)c1cccc(/C=C/c2ccc3ccc(Cl)cc3n2)c1 (centres unmarked) [Compound 5, reference compound] , would its reported IC50 be below 7 µM?
stdout: no (0)

stdin: Given the entry Cc1occc1C(=O)N1CCN(c2cc(-c3ccco3)nc3cc(-c4ccccc4)nn23)CC1 [Compound 70] , would its reported IC50 be below 7 µM?
stdout: no (0)

stdin: Given the entry O=C(c1ccco1)N1CCN(c2cc(-c3ccccc3)nc3cc(-c4cccc(Cl)c4)nn23)CC1 [Compound 8] , would its reported IC50 be below 7 µM?
stdout: yes (1)

stdin: Given the entry COc1ccccc1-c1cc2nc(-c3ccccc3)cc(N3CCN(C(=O)c4ccccc4)CC3)n2n1 [Compound 41] , would its reported IC50 be below 7 µM?
stdout: yes (1)

###

- Test system: ABCG2 over-expressing Ig-MXP3 cells
- protocol: Chemoreversal assay: potentiation of mitoxantrone (MTX) killing
- Type: cell-based
- condition: Ig-MXP3 cells, constant 30 nM MTX, varied inhibitor dose; listed as reversan; read-out: CR50 ABCG2
measurement_type: EC50 (µM)
Please state the figure in µM; there is no need to write the unit.

Record summary for O=C(NCCCN1CCOCC1)c1cnn2c(-c3ccccc3)cc(-c3ccccc3)nc12 [Compound 6, reference compound] : reported EC50 = 3.6

###

- System: ABCG2 over-expressing Ig-MXP3 cells
- protocol: Chemoreversal assay: potentiation of mitoxantrone (MTX) killing
- Assay type: cell-based
- condition: Ig-MXP3 cells, constant 30 nM MTX, varied inhibitor dose; read-out: CR50 ABCG2
EC50 vs 800 nM: less than gives True; not less than gives False.

| molecule | discrete_label |
| --- | --- |
| O=C(NCCCN1CCOCC1)c1cnn2c(-c3ccccc3)cc(-c3ccccc3)nc12 [Compound 6, reference compound] | False |
| O=C(c1ccoc1)N1CCN(c2cc(-c3cccnc3)nc3cc(-c4cccc(Cl)c4)nn23)CC1 [Compound 30] | True |

stdin: Given the entry COc1ccc(-c2cc3nc(-c4ccco4)cc(N4CCN(C(=O)c5ccoc5)CC4)n3n2)cc1 [Compound 57] , would its reported EC50 be below 800 nM?
stdout: True

stdin: Given the entry O=C(c1ccoc1)N1CCN(c2cc(-c3ccncc3)nc3cc(-c4cccc(Cl)c4)nn23)CC1 [Compound 31] , would its reported EC50 be below 800 nM?
stdout: False

stdin: Given the entry COc1ccccc1-c1cc(N2CCN(C(=O)c3ccoc3)CC2)n2nc(-c3ccccc3)cc2n1 [Compound 44] , would its reported EC50 be below 800 nM?
stdout: True

stdin: Given the entry COc1ccc(-c2cc3nc(-c4ccccc4)cc(N4CCN(C(=O)c5ccoc5)CC4)n3n2)cc1 [Compound 36] , would its reported EC50 be below 800 nM?
stdout: True

stdin: Given the entry COc1cccc(-c2cc3nc(-c4ccco4)cc(N4CCN(C(=O)c5ccoc5)CC4)n3n2)c1 [Compound 56] , would its reported EC50 be below 800 nM?
stdout: False
